Cited source: patent US6444683B2

# TEST_SYSTEM: human prostate 5α-reductase (Homo sapiens)
# Construct: The enzymatic reactions were initiated by addition of human BPH microsomes; from tissue; host or cells: human benign prostatic hyperplasia (BPH) tissue, microsomal fraction
# Sequence (P31213 whole entry): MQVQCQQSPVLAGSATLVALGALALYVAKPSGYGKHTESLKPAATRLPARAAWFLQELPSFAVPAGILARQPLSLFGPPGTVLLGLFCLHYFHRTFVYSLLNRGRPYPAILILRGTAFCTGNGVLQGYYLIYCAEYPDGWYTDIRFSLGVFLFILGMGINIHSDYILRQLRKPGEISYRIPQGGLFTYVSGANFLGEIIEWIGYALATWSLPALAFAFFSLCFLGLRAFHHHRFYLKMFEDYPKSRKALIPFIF
# EXPERIMENT_DESCRIPTION: Inhibition of human prostate 5α-reductase in BPH microsomes (conversion of [7-3H]-testosterone to DHT)
# Type: biochemical
# CONDITION_LABEL: human BPH microsomes; mean ± SDM of at least two experiments; read-out: 5α-Reductase IC50
# Method: […] The ethanol was evaporated to dryness under a gentle stream of air. […] The extracts were analyzed for ^3H and ^14C using a liquid scintillation counter. The percentage conversion of [7-^3H]-testosterone to [^3H]-dihydrotestosterone was calculated and used to determine 5α-reductase activity.
METRIC_NAME: pIC50
pIC50 (log units): -log10 of the concentration in mol/L.

Study these solved cases before continuing.
{"STRUCTURE_STRING": "C[C@]12CCC(=O)C=C1CC[C@@H]1[C@@H]2CC[C@]2(C)C(n3ccnc3)=CC[C@@H]12", "pIC50": 6.85}
{"STRUCTURE_STRING": "C[C@]12CCC(=O)C=C1CC[C@@H]1[C@@H]2CC[C@]2(C)C(n3ccnn3)=CC[C@@H]12", "pIC50": 6.70}

Let us examine a further case.
Inquiry: Give the observed pIC50 of `C[C@]12CCC(=O)C=C1CC[C@@H]1[C@@H]2CC[C@]2(C)C(n3cncn3)=CC[C@@H]12` for human prostate 5α-reductase (Homo sapiens).
Reply text: 6.82
